// provenance: patent US11498896B2

# reported EC50; entries follow
target: human D2R/β-arrestin (Homo sapiens (Human), UniProt P14416); test: β-arrestin agonist assay (PathHunter); type: cell-based; conditions: CHO-K1 cells expressing human D2R/β-arrestin; agonist mode
Sequence (P14416 whole entry): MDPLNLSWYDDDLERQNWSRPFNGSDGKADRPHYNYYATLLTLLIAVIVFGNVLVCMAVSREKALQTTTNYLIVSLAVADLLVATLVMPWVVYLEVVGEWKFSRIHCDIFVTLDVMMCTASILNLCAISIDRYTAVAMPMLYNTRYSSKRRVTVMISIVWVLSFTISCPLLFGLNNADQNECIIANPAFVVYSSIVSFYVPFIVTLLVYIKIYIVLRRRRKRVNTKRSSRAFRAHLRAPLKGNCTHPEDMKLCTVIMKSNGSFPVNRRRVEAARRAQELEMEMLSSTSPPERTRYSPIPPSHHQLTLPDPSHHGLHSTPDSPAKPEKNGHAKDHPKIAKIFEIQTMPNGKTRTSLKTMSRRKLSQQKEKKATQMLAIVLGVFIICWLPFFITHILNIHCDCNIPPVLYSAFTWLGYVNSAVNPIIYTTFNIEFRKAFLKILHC

[[record]]
molecule = "CC1(Oc2ccc(Cl)cc2)CCN(CCOc2cnccc2C(F)(F)F)CC1"
system_under_test = "human D2R/β-arrestin (Homo sapiens (Human), UniProt P14416)"
reported = "> 30 µM"

[[record]]
molecule = "CC1(Oc2ccncc2)CCN(CCOc2ccccc2)C1 (centres unmarked) [Example 59b]"
system_under_test = "human D2R/β-arrestin (Homo sapiens (Human), UniProt P14416)"
reported = "1 to 10 µM"

[[record]]
molecule = "CC1(C(=O)Nc2ccccc2)CCN(CCOc2ccccc2F)CC1"
system_under_test = "human D2R/β-arrestin (Homo sapiens (Human), UniProt P14416)"
reported = "> 30 µM"

[[record]]
molecule = "CC1(Oc2ccc(Cl)cc2)CCN(CCC(C)(O)c2ccccc2C(F)(F)F)CC1 (centres unmarked)"
system_under_test = "human D2R/β-arrestin (Homo sapiens (Human), UniProt P14416)"
reported = "> 30 µM"


Find EC50 (human D2R/β-arrestin (Homo sapiens (Human), UniProt P14416)) for the entry FC(F)(F)c1ccccc1OCCN1CCC2(CCCN2c2ccc(Cl)cc2)CC1
> 30 µM

---

target: human D2R/β-arrestin (Homo sapiens (Human)); experiment: cell-based; details: cAMP Antagonist, CHO-K1 cells expressing human D2R/β-arrestin; antagonist mode, 2.5 μM forskolin and 2.7 nM quinpirole
pIC50: −log10 of the molar value.
Property Label: pIC50

Some entries whose results are on file:
[[record]]
compound = "CC1(Oc2ccc(Cl)cc2)CCN(CCOc2cccc(F)c2)C1 (centres unmarked) [Compound 180]"
property_label = "pIC50"
reported = "< 4.52"

[[record]]
compound = "CC1(Oc2ccc(Cl)cc2)CCN(CCOc2ccc(C(C)(C)O)cc2)CC1 [Compound 155]"
property_label = "pIC50"
reported = "5.00 to 6.00"

[[record]]
compound = "CC1(Oc2cccc(N)c2)CCN(CCOc2ccccc2)C1 (centres unmarked) [Example 41]"
property_label = "pIC50"
reported = "< 4.52"

[[record]]
compound = "CC1(Oc2ccc(Cl)cc2)CCN(CCn2cccc(C(F)(F)F)c2=O)CC1 [Compound 195]"
property_label = "pIC50"
reported = "< 4.52"

[[record]]
compound = "CC1(Oc2ccccc2)CCN(CCOc2ccccc2C(F)(F)F)CC1 [Example 91]"
property_label = "pIC50"
reported = "< 4.52"


Find the recorded pIC50 belonging to CC1(Oc2ccc(Cl)cc2)CCN(CCOc2ccc3ncsc3c2)C1 (centres unmarked) [Compound 18] and report it.
< 4.52

---

# reported EC50; entries follow
biological target: human D2R/β-arrestin (Homo sapiens (Human), UniProt P14416); experiment: Gi/cAMP agonist assay (Lance Ultra cAMP, forskolin); format: cell-based; details: CHO-K1 cells expressing human D2R/β-arrestin; agonist mode, 2.5 μM forskolin

Some entries whose results are on file:
[[record]]
compound = "CC1(Oc2ccc(Cl)cc2)CCN(CCOc2ccc(C#N)cc2)CC1"
reported = "1000 to 10000 nM"

[[record]]
compound = "CC1(Oc2ccc(Cl)cc2)CCN(CCC(C)(O)c2ccccc2C(F)(F)F)CC1 (stereo not shown)"
reported = "> 30000 nM"


Find the recorded EC50 belonging to COC1(C)CCN(CCOc2ccccc2C(F)(F)F)CC1 and report it.
> 30000 nM

Find the recorded EC50 belonging to O=[N+]([O-])c1ccc(OC2(c3ccccc3)CCN(CCOc3ccccc3)C2)cc1 (stereo not shown) and report it.
100 to 1000 nM

Find the recorded EC50 belonging to CNC(=O)C1(C)CCN(CCOc2ccccc2F)CC1 and report it.
100 to 1000 nM

Find the recorded EC50 belonging to CN(C1CCCCC1)C1(C)CCN(CCOc2ccccc2C(F)(F)F)CC1 and report it.
100 to 1000 nM

Find the recorded EC50 belonging to CC1(Oc2ccc(Cl)cc2)CCN(CCOc2ccccc2C(F)(F)F)CC1 and report it.
< 100 nM

Find the recorded EC50 belonging to CC1(Oc2ccc(Cl)cc2)CCN(CCOc2ccccc2F)CC1 and report it.
< 100 nM

Find the recorded EC50 belonging to CC1(Oc2ccc(Cl)cc2)CCN(CCOc2ccc(F)cc2)C1 (stereo not shown) and report it.
< 100 nM

Find the recorded EC50 belonging to CC1(Oc2ccc(Cl)cc2)CCN(CCOc2cc(Cl)ccc2C(F)(F)F)CC1 and report it.
1000 to 10000 nM
